assayed-system: T1, human CD24 on cells (human, UniProt P25063 27-59)
T1 construct: whole, on cells; One molecule for all cell lines; the cell line is named under assay or readout; also called cell surface CD24; cell-based CD24
T1 chain (looked up): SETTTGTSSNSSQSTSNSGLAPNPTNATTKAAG
assay-procedure: flow cytometry (GMFI), MCF-7 cells; EC50 table under the graphs
Form field: EC50 (one value per entry).
# output: bare number, implied unit µg/mL

Below, each entry is followed by its recorded EC50 result.
{"binder": "VH3 + VL4 (humanized 4451) (antibody, V domains shown, IgG expressed in HEK293) VH: QVQLVQSGAEVKKPGASVKVSCKASGYDFTGYHMNWVRQAPGQGLEWIGEINPITSDKTFNQKFKSRATMTVDTSISTAYMELSRLRSDDTAVYYCARRDYGTSLDYWGQGTTVTVSS VL: DIQLTQSPSFLSASVGDRVTIYCRASKSISKYLAWYQQKPGKAPRLLIYAGSTLHSGIPSRFRGSGSGTEFTLTISSLQPEDFATYYCQQHNEYPITFGQGTKLEIK", "output-unit": "µg/mL", "recorded-value": 0.41}
{"binder": "VH2 + VL3 (humanized 4451) (antibody, V domains shown, IgG expressed in HEK293) VH: QVQLVQSGAEVKKPGASVKVSCKASGYDFTGYHMNWVRQAPGQGLEWIGEINPITSDKTFNQKFKSRVTMTVDTSISTAYMELSRLRSDDTAVYYCARRDYGTSLDYWGQGTTVTVSS VL: DIQLTQSPSFLSASVGDRVTITCRASKSISKYLAWYQQKPGKAPKLLIYAGSTLHSGIPSRFRGSGSGTEFTLTISSLQPEDFATYYCQQHNEYPITFGQGTKLEIK", "output-unit": "µg/mL", "recorded-value": 0.42}

Switching to the query record.
Exam item: Suppose we examine the binder VH3 + VL1 (humanized 4451) (antibody, V domains shown, IgG expressed in HEK293) VH: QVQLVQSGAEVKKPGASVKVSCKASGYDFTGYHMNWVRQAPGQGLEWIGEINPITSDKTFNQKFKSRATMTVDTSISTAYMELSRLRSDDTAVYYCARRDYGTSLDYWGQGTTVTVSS VL: DIQLTQSPSFLSASVGDRVTITCRASKSISKYLAWYQQKPGKAPKLLIYAGSTLHSGVPSRFSGSGSGTEFTLTISSLQPEDFATYYCQQHNEYPITFGQGTKLEIK ; what EC50 value has been reported?
Marked response: 0.42
